Origin of values: ChEMBL document CHEMBL3112412

Assay Details: Selectivity ratio of Ki for sigma 2 receptor in guinea pig brain to Ki for sigma 1 receptor in rat liver homogenate
Format: tissue-based
Measured Attribute: Ratio Ki

Check out these entries, answers already filled in.
[
  {
    "Structure": "CCN(CC1CCN(Cc2ccc(Cl)cc2)CC1)C(=O)c1ccc(OC)cc1",
    "Ratio Ki": 1.3
  },
  {
    "Structure": "CCN(CC1CCN(Cc2ccc(Cl)cc2)CC1)C(=O)c1cccc2ccccc12",
    "Ratio Ki": "> 4"
  }
]

Prompt: Identify measured Ratio Ki corresponding to CCN(CC1CCN(Cc2ccc(Cl)cc2)CC1)C(=O)c1ccc(Cl)cc1
Response: > 11

Prompt: Identify measured Ratio Ki corresponding to CCN(CC1CCN(Cc2ccccc2)CC1)C(=O)c1ccc(Cl)cc1
Response: > 17

Prompt: Identify measured Ratio Ki corresponding to CCN(CC1CCN(Cc2ccccc2)CC1)C(=O)c1ccco1
Response: > 140

Prompt: Identify measured Ratio Ki corresponding to CCN(CC1CCN(Cc2ccccc2)CC1)C(=O)c1ccc(-c2ccccc2)cc1
Response: > 1

Prompt: Identify measured Ratio Ki corresponding to CCN(CC1CCN(Cc2ccc(Cl)cc2)CC1)C(=O)c1ccco1
Response: > 40

Prompt: Identify measured Ratio Ki corresponding to CCN(CC1CCN(Cc2ccccc2)CC1)C(=O)c1cccc2ccccc12
Response: > 6

Prompt: Identify measured Ratio Ki corresponding to CCN(CC1CCN(Cc2ccc(Cl)cc2)CC1)C(=O)c1ccc(C)cc1
Response: > 3

Prompt: Identify measured Ratio Ki corresponding to CCN(CC1CCN(Cc2ccccc2)CC1)C(=O)c1ccc(C)cc1
Response: > 3

Prompt: Identify measured Ratio Ki corresponding to CCN(CC1CCN(Cc2ccccc2)CC1)C(=O)c1ccc2ccccc2c1
Response: 1.36

---

Assayed System: Sigma non-opioid intracellular receptor 1 (Rattus norvegicus, UniProt Q9R0C9)
Sequence (Q9R0C9 whole entry): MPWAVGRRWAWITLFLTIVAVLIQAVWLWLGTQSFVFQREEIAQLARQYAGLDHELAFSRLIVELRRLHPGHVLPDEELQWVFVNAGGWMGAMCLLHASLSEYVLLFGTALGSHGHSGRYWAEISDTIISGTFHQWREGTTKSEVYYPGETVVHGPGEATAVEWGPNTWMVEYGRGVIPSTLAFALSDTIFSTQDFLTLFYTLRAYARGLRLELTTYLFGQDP
Assay Details: Displacement of [3H](+)-pentazocine from sigma 1 receptor in rat liver homogenate after 120 mins by liquid scintillation counting
pKi: −log10 of the molar value.
Measured Attribute: pKi

[
  {
    "Structure": "CCN(CC1CCN(Cc2ccc(Cl)cc2)CC1)C(=O)c1ccc(-c2ccccc2)cc1",
    "Value Reported": 6.43
  }
]

1. CCN(CC1CCN(Cc2ccccc2)CC1)C(=O)c1ccc(-c2ccccc2)cc1
2. CCN(CC1CCN(Cc2ccc(Cl)cc2)CC1)C(=O)c1ccccc1
3. CCN(CC1CCN(Cc2ccccc2)CC1)C(=O)c1ccccc1
Prompt: In this exercise, place the 3 compounds in ascending sequence of their recorded pKi. List the labels, following the order given in the request.
Response: 1, 2, 3

---

Assayed System: Sigma non-opioid intracellular receptor 1 (Rattus norvegicus, UniProt Q9R0C9)
Assay Details: Displacement of [3H](+)-pentazocine from sigma 1 receptor in rat liver homogenate after 120 mins by liquid scintillation counting
pKi: −log10 of the molar value.
Measured Attribute: pKi

Check out these entries, answers already filled in.
[
  {
    "Structure": "CCN(CC1CCN(Cc2ccc(Cl)cc2)CC1)C(=O)c1ccc(OC)cc1",
    "Value Reported": 6.66
  },
  {
    "Structure": "CCN(CC1CCN(Cc2ccccc2)CC1)C(=O)c1ccc(Cl)cc1",
    "Value Reported": 7.23
  },
  {
    "Structure": "CCN(CC1CCN(Cc2ccc(Cl)cc2)CC1)C(=O)c1ccc2ccccc2c1",
    "Value Reported": 6.65
  }
]

a. CCN(CC1CCN(Cc2ccccc2)CC1)C(=O)c1ccco1
b. CCN(CC1CCN(Cc2ccc(Cl)cc2)CC1)C(=O)c1cccc2ccccc12
c. CCN(CC1CCN(Cc2ccc(Cl)cc2)CC1)C(=O)c1ccc(Cl)cc1
Prompt: In this exercise, place the 3 compounds in ascending sequence of their recorded pKi. List the labels, following the order given in the request.
Response: b, c, a
(b: 6.67, c: 7.04, a: 7.67)
